Ref: ChEMBL document CHEMBL1764970

Recorded Ki for the following compounds
# target system: UniProt:P04062
# Sequence (P04062 whole entry): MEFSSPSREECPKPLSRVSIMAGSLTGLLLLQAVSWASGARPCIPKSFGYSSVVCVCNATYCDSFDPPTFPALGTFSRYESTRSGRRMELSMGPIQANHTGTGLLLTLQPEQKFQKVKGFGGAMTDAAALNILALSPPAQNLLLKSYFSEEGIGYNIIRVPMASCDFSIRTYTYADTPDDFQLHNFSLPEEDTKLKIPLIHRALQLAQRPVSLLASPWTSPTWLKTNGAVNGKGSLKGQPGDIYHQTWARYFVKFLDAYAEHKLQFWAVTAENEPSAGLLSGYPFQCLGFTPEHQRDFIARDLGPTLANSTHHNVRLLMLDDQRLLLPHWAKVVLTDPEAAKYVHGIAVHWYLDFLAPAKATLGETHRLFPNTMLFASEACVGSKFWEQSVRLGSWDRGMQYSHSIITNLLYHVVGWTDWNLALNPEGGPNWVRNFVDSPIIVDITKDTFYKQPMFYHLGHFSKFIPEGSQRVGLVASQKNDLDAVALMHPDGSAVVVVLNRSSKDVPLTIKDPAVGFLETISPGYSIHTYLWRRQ
# experiment: Competitive inhibition of recombinant glucocerebrosidase
Number only, in nM; omit the unit.

Take a look at these entries with their results.
# smiles representation, value unit, Ki
data = [
    ("O[C@@H]1[C@@H](O)[C@H](O)[C@@H](NCc2cn(CCC(c3ccccc3)c3ccccc3)nn2)[C@H](O)[C@H]1O", "nM", 770),
    ("CCCCCCCCCCCn1cc(CN[C@H]2[C@H](O)[C@@H](O)[C@H](O)[C@@H](O)[C@@H]2O)nn1", "nM", 50),
    ("O[C@@H]1[C@@H](O)[C@H](O)[C@@H](NCc2cn(CCCCC3CCCCC3)nn2)[C@H](O)[C@H]1O", "nM", 290),
    ("O[C@@H]1[C@@H](O)[C@H](O)[C@@H](NCc2cn(CC34CC5CC(CC(C5)C3)C4)nn2)[C@H](O)[C@H]1O", "nM", 1050),
    ("OCCCCCCCCCCn1cc(CN[C@H]2[C@H](O)[C@@H](O)[C@H](O)[C@@H](O)[C@@H]2O)nn1", "nM", 890),
]

Could you now look at the following compound, please?
# input compound: O[C@@H]1[C@@H](O)[C@H](O)[C@@H](NCc2cn(Cc3cc(OCc4ccccc4)cc(OCc4ccccc4)c3)nn2)[C@H](O)[C@H]1O ; wanted: its Ki
50
